Study Target: T1, Human ST2 (human, UniProt Q01638 19-328, limits assumed)
T1 construct: also called human ST2 protein; Interleukin 1 receptor-like 1
T1 sequence (looked up): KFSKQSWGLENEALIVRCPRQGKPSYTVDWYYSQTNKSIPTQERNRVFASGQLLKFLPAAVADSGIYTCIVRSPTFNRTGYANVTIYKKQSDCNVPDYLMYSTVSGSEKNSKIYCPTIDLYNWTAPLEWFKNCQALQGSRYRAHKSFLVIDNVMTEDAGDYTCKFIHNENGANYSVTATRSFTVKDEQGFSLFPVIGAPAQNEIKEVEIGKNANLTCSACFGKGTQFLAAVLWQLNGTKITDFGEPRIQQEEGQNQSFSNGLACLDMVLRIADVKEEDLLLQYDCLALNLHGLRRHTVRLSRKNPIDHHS
Experiment Notes: SPR (Carterra), antibody immobilized, ST2 analyte
Measured Quantity: koff (s⁻¹)

[
  {
    "Binder": "Human ST2 IgG1 Antibody 20 (antibody, V domains shown, IgG1; also called ST2 Antibody 20) VH: EVQLLESGAEVKKPGSSVKVSCKASGGTFSSYAISWVRQAPGQGLEWMGGIIPIFGTANYAQKFQGRVTITADESTSTAYMELSSLRSEDTAVYYCASGFYSNDLYYYYYMDVWGKGTTVTVSS VL: DIQMTQSPSSLSASVGDRVTITCRASQSISSWLAWYQQKPGKAPKLLIYDASNLKTGVPSRFSGSGSGTDFTLTISSLQPEDFATYYCQQTYAIPLTFGGGTKVEIKR",
    "Measured Value": 0.065
  },
  {
    "Binder": "Human ST2 IgG1 Antibody 74 (antibody, V domains shown, IgG1; also called ST2 Antibody 74) VH: EVQLLESGGGLVQPGGSLRLSCAASGFTFSSYWMSWVRQAPGKGLEWVSSISSSSSYIYYADSVKGRFTISRDNSKNTLYLQMNSLRAEDTAVYYCARDQGWFDPWGQGTLVTVSS VL: DIQMTQSPSSLSASVGDRVTITCRASRAIGNNLSWYQQKPGKAPKLLIYTASSLQSGVPSRFSGSGSGTDFTLTISSLQPEDFATYYCQQSYSTPYTFGQGTKVEIKR",
    "Measured Value": 0.012
  },
  {
    "Binder": "Human ST2 IgG1 Antibody 40 (antibody, V domains shown, IgG1; also called ST2 Antibody 40) VH: QVQLVQSGAEVKKPGASVKVSCKASGYTFTSYYIHWVRQAPGQGLEWMGIINPSADTTTYAQQFQGRVTMTRDTSTSTVYMELSSLRSEDTAVYYCARTPGNYGGNSLGYYYYYGMDVWGQGTLVTVSS VL: DIQMTQSPSSLSASVGDRVTITCRASQSVGTWLAWYQQKPGKAPKLLIYAASTLQSGVPSRFSGSGSGTDFTLTISSLQPEDFATYYCQQSYSSPLTFGPGTKVDIKR",
    "Measured Value": 0.12
  },
  {
    "Binder": "Human ST2 IgG1 Antibody 4 (antibody, V domains shown, IgG1; also called ST2 Antibody 4) VH: QVQLVQSGAEVKKPGSSVKVSCKASGGTFSTFGVSWVRQAPGQGLEWMGRIIPILATTNYAQKFQGRVTITADESTSTAYMELSSLRSEDTAVYYCASGDYYDSSGYYGYFQHWGQGTLVTVSS VL: EIVMTQSPATLSVSPGERATLSCRASQSVSSSYLAWYQQKPGQAPRLLIYGASTRATGIPARFSGSGSGTEFTLTISSLQSEDFAVYYCQQSYSIPFTFGQGTKLEIKR",
    "Measured Value": 0.0025
  },
  {
    "Binder": "Human ST2 IgG1 Antibody 32 (antibody, V domains shown, IgG1; also called ST2 Antibody 32) VH: EVQLLESGGGLVQPGGSLRLSCAASGFTFSNSDMNWVRQAPGKGLEWVSFISSSSGYTYYADSVKGRFTISRDNSKNTLYLQMNSLRAEDTAVYYCARANNNWNFYFDYWGQGTLVTVSS VL: DIQMTQSPSSLSASVGDRVTITCRASQSINNWLAWYQQKPGKAPKLLIYSASSLQSGVPSRFSGSGSGTDFTLTISSLQPEDFATYYCQQSYDTPITFGQGTKVEIKR",
    "Measured Value": 0.061
  }
]
